Test system: MDA-MB-231 cells
Assay: Cell proliferation assay (alamarBlue), MDA-MB-231
Type: cell-based
Conditions: Homo sapiens, mammary carcinoma, 96 hours incubation, read-out: Breast MDA-MB-231 IC50
PROPERTY_NAME: pIC50
One number for each entry, as −log10 of the molar value.

Problem: Which value of pIC50 has been reported for Cc1c2c(cn1C)-n1c(C)nnc1[C@H](CC(=O)N1CC3(CCS3(=O)=O)C1)N=C2c1ccc(Cl)cc1 in the records?
Result: 6.52

* * *

Tested on: B16F10 cells
Assay: Cell proliferation assay (alamarBlue), B16F10
Type: cell-based
Conditions: Mus musculus, B16-F10, melanoma (BRAF wild-type), 96 hours incubation
Procedure: In accordance with the invention, the ability of the substances to inhibit cell proliferation was determined Cell viability was determined by means of the alamarBlue® reagent (Invitrogen) in a Victor ×3 Multilabel Reader (Perkin Elmer). The excitation wavelength was 530 nm and the emission wavelength […]. […] After overnight incubation at 37° C., the fluorescence values (CI values) were determined. […] Subsequently, the fluorescence values were determined (CO values). […]
Give IC50 for every item shown.
Numbers only, in nM.

[[record]]
compound = "Cc1c2c(cn1C)-n1c(C)nnc1[C@H](CC(=O)N1CC3(CCS3(=O)=O)C1)N=C2c1ccc(Cl)cc1 [Example 3]"
property_name = "IC50"
measured_result = 160

[[record]]
compound = "Cc1c2c(cn1C)-n1c(C)nnc1[C@H](CC(=O)N1CC3(COC3)C1)N=C2c1ccc(Cl)cc1 [Example 1]"
property_name = "IC50"
measured_result = 1140

[[record]]
compound = "Cc1c2c(cn1C)-n1c(C)nnc1[C@H](CC(=O)N1C3CCC1CC(=O)C3)N=C2c1ccc(Cl)cc1 (single isomer, unassigned; (-)) [Example 6]"
property_name = "IC50"
measured_result = 890


Shift focus to the following entry.
Problem: Which value of IC50 has been reported for Cc1c2c(cn1C)-n1c(C)nnc1[C@H](CC(=O)N1CC3(COC3)C1)N=C2c1ccccc1 [Example 2] in the records?
Result: 2010
